For each entry below, report its GI50 value.
System: SK-MEL-5 melanoma
Assay: NCI tumour cell line growth inhibition, 48 h

# example entries with known answers
{"columns": ["MOL SMILES", "MEASURED PROPERTY", "RECORDED VALUE"],
 "data": [
  ["COC(=O)OCc1ccc2c(c1)C(=O)c1c-2n(CCCBr)c(=O)c2cc([N+](=O)[O-])ccc12", "GI50", "> 100 µM"],
  ["O=C1c2ccn(CCCCN3CCCCC3)c2C(=O)c2c1c(O)c1ccccc1c2O", "GI50", "13.3 µM"],
  ["CN1CCN(c2ccc(NC3=C(Cl)C(=O)c4ncccc4C3=O)cc2C#N)CC1", "GI50", "1.83 µM"],
  ["COc1ccc(-c2nnc(N3CCN(C(=O)CN4CCN(c5ccc(Cl)cc5)CC4)CC3)nc2-c2ccc(OC)cc2)cc1", "GI50", "7.91 µM"]
]}

Could you now look at the following compound, please?
Asked: So what does the record say about GI50 for c1ccc2cc(Cn3c[n+](Cc4ccc5ccccc5c4)c4ccccc43)ccc2c1 ?
Given back: 0.556 µM

---

System: OVCAR-8 ovarian
Experiment: NCI tumour cell line growth inhibition, 48 h
Can you tell me TGI for the items I'm about to list?

{"columns": ["COMPOUND", "TGI"],
 "data": [
  ["CN1CCN(CCNc2ccc(CO)c3sc4ccccc4c(=O)c23)CC1", "23.5 µM"],
  ["C#C[C@H](CCCC)OC(=O)N[C@H](C)c1ccccc1", "> 100 µM"]
]}

Provide the reported TGI of each entry below, same order.
1. CN(NC(=O)/C(=C\c1ccco1)NC(=O)c1ccccc1)c1cn[nH]c(=O)c1Cl
2. CC(=O)OC1CC[C@@]2(C)C(C1)CC(OC(C)=O)[C@@H]1C2CC(OC(C)=O)[C@]2(C)C(C(C)CC=C(c3ccc(Cl)cc3)c3ccc(Cl)cc3)CCC12 (some centres undefined)

Given back:
1: > 100 µM; 2: > 100 µM

Look up TGI for the entries below, preserving their order.
1. O=C(O)c1cc(O)c2c(c1)C([C@@H]1c3cccc(O)c3C(=O)c3c(O)cc(C(=O)O)cc31)c1cccc(O)c1C2=O (some centres undefined)
2. COC(=O)c1ccccc1C1CN=NC12Cc1cc(C)c(C)cc1C2=O (centres undefined)
3. COc1cc2c(c(OC)c1OC)C(=O)[C@H](Br)[C@H]2NC(=O)NCCCl
4. CC(CN1CCN(CC(C)Nc2ccnc3cc(Cl)ccc23)CC1)Nc1ccnc2cc(Cl)ccc12 (centres undefined)
5. CCOC(=O)c1[nH]c(CN(C)Cc2[nH]c(C(=O)OCC)c(C)c2C(=O)OCc2ccccc2)c(C(=O)OCc2ccccc2)c1C

Given back:
1. > 100 µM
2. > 100 µM
3. > 100 µM
4. > 64 µM
5. > 100 µM

---

Tested on: NCI-H23 lung
Test: NCI tumour cell line growth inhibition, 48 h
MEASURED PROPERTY: TGI

Example cases with answers are listed next.
{"columns": ["COMPOUND", "EXPERIMENTAL SYSTEM", "TGI"],
 "data": [
  ["COC1CC(CC2CCC(C)C(C(C)C(=O)O)O2)OC2(OC(C)(C3CCC(C)(C4OC(C5OC(O)(CO)C(C)CC5C)CC4C)O3)CC2C)C1C (configuration not stated)", "NCI-H23 lung", "8.76 µM"],
  ["O=S(=O)(NCCNc1cc(-c2cn(-c3ccccc3)nc2-c2cccc(O)c2)ccn1)c1ccc(Cl)cc1", "NCI-H23 lung", "13.4 µM"],
  ["CC(=O)c1cc2c(c3ccsc13)-c1ccccc1CC2", "NCI-H23 lung", "95.6 µM"],
  ["COc1ccc(C2c3cc4c(cc3OC(O)(CO)C2C(=O)O)OCO4)cc1 (configuration not stated) (tested in a mixture with another compound)", "NCI-H23 lung", "50.8 µM"]
]}

Return reported TGI values for all items listed beneath this line.
1. CC(O)(CNS(=O)(=O)c1ccccc1)c1ccccc1 (configuration not stated)
2. COC(=S)OC1CC(n2cnc3c(N)ncnc32)OC1CO[Si](C)(C)C(C)(C)C (configuration not stated)
3. CCO/C(O)=C(/C(=N)N1CCCC1)C(=O)Nc1ccc(F)cc1

Given back:
> 100 µM
38.7 µM
59.4 µM

---

Test system: UO-31 renal
Test: NCI tumour cell line growth inhibition, 48 h
Please provide measured TGI for the entries that follow.

Examples with answers:
{"columns": ["COMPOUND", "MEASURED PROPERTY", "RECORDED VALUE"],
 "data": [
  ["CCN(CC)c1ccc2cc(C(=O)Nc3nc(C45CC6CC(CC(C6)C4)C5)cs3)c(=O)oc2c1", "TGI", "> 100 µM"],
  ["CN1CCN(CCNc2ccc(CO)c3sc4ccccc4c(=O)c23)CC1", "TGI", "19.6 µM"],
  ["Nc1ccc2ccc(NS(=O)(=O)N3CCCCC3)cc2c1", "TGI", "> 100 µM"]
]}

// for each compound in input: emit TGI
1. Cc1ccc(C2C3=C(N=c4s/c(=C/c5ccc(Br)cc5)c(=O)n42)c2ccc4ccccc4c2OCC3)cc1 (stereo not given)
2. COc1cc(C2=NN(c3ccc(S(N)(=O)=O)cc3)C(c3ccc(Cl)cc3)C2)cc(OC)c1OC (stereo not given)
3. BrC1=CC=C2NCCCCCCN=C3C=CC(Br)=CC=C3NCCCCCCN=C2C=C1
4. CCCN1C(=O)CSC1=Nc1ccc2cc3ccc(N=C4SCC(=O)N4CCC)cc3nc2c1

Given back:
["> 100 µM", "> 100 µM", "> 25.5 µM", "> 100 µM"]

Look at each compound and report its TGI.
1. CS(=O)(=O)CCn1c(=O)c(Oc2ccc(F)cc2F)cc2cnc(NC3CCOCC3)nc21
2. O=S(=O)(O)c1cc(N=[N+]([O-])c2cc(S(=O)(=O)O)c3ccccc3c2)cc2ccccc12
3. COC(=O)c1ccccc1NC(=O)C(=O)CC(=O)CC(c1ccccc1)c1c(O)c2ccccc2oc1=O (stereo not given)
4. CC(=O)/C=C/C1=C(c2cccs2)c2ccccc2CC1
5. Cc1[nH]nc2c1C(=O)C=C(N(CCO)c1ccccc1)C2=O
6. COC(=O)C1=C(O)CCCC(CCC(C)=O)=C1
7. CC(O)(CNS(=O)(=O)c1ccccc1)c1ccccc1 (stereo not given)

Given back:
["> 25 µM", "50.2 µM", "> 100 µM", "86.4 µM", "> 100 µM", "> 100 µM", "> 100 µM"]

Items follow; give TGI for each.
1. C/C1=C/C(=O)O[C@@H]2C[C@@H](CC[C@H](C)/C=C\C=C\CC1)O[C@@](OCCc1ccccc1)([C@@H]1CSC(=O)N1)C2
2. C#Cc1cccc(Oc2ccc(NC(=O)CCl)cc2)c1
3. COc1cccc(NC(=O)CC(=O)N2N=C(C)C(N=Nc3ccc(S(=O)(=O)CCOS(=O)(=O)O)cc3)C2=O)c1 (stereo not given)
4. Cc1cccc2c1O/C(=C\c1ccc([N+](=O)[O-])o1)C2=O
5. CC1CCP(=O)(c2ccccc2)CC1 (stereo not given)
6. Cc1ccc2c(c1)O/C(=C\c1ccc([N+](=O)[O-])o1)C2=O

Given back:
["0.173 µM", "> 82.5 µM", "24.5 µM", "2.49 µM", "> 100 µM", "3.46 µM"]

---

Please respond with reported GI50 for every item in the list.
Tested on: K-562 leukemia
Assay: NCI tumour cell line growth inhibition, 48 h

{"columns": ["COMPOUND", "GI50"],
 "data": [
  ["COc1cc2cc(Oc3ccc(NC(=O)Nc4ccc(Cl)c(C(F)(F)F)c4)cc3)c(C)nc2cc1OC", "1.11 µM"],
  ["CCN(CC)CCOc1ccc2c(c1)C(=O)c1cc(OCCN(CC)CC)ccc1-2", "3.1 µM"],
  ["Cc1nc2cc(Nc3nc(Nc4ccc(F)cc4)nc(N4CCN(C)CC4)n3)ccc2n1Cc1ccccc1", "1.34 µM"],
  ["COc1ccc(/C=C/C(=O)c2cc3c(N)c(C(=O)Nc4ccccc4C)sc3nc2C)cc1", "0.267 µM"]
]}

Look up GI50 for the entries below, preserving their order.
1. Cc1cccc2c1O/C(=C\c1ccc([N+](=O)[O-])o1)C2=O
2. COc1cc(-c2cc(/C=C3\C(=O)Nc4ccccc43)[nH]n2)cc(OC)c1OC

Given back:
1: 0.296 µM; 2: 2.65 µM

---

System: KM12 colon
Assay: NCI tumour cell line growth inhibition, 48 h
Record form. Attribute: TGI. Fill in for each entry.
Give bare numbers, in µM.

The cases that follow already have their TGI on record.
{"columns": ["MOLECULE", "EXPERIMENTAL SYSTEM", "VALUE UNIT", "RECORDED VALUE"],
 "data": [
  ["O=C1c2ccn(CCCCN3CCCCC3)c2C(=O)c2c1c(O)c1ccccc1c2O", "KM12 colon", "µM", 27.5],
  ["CCOC(=O)c1sc2nc(-c3ccccc3)nn2c1CBr", "KM12 colon", "µM", 4.14],
  ["CC(C)(C)OC(=O)CN1CCc2c(sc3ncnc(N/N=C/c4cccc5ccccc45)c23)C1", "KM12 colon", "µM", 9.8],
  ["COc1ccc(/C=C(/C)[N+](=O)[O-])cc1", "KM12 colon", "µM", 3.32],
  ["Cc1cc(=O)oc2c3c(ccc12)OC(c1ccc(Br)cc1)CC3=O (stereo unspecified)", "KM12 colon", "µM", 33.1]
]}

Please look at the items below and tell me TGI for each one, in order.
1. CCN(CC)CCOc1ccc2c(c1)C(=O)c1cc(OCCN(CC)CC)ccc1-2
2. C[S+](C)CC(=O)c1ccc2c(c1)Sc1ccccc1O2
3. OCC#Cc1ccccc1C#Cc1ccc(C#Cc2ccccc2C#CCO)s1
4. CN(C)CCc1ccnc2nc(-c3ccc4ccccc4c3)cn12

Given back:
24.9
2.87
30.6
44.3
